# Tested on: johnsongrass
# EXPERIMENT_NOTES: Test C preemergence
# Assay type: in vivo, Sorghum halepense
# CONDITION: preemergence, 125 g ai/ha; 13 to 15 days; scale 0 to 100, 0 = no effect, 100 = complete control
PARAMETER: Plant response rating, Johnsongrass
Provide a numeric answer; units are not to be included.

Task: State the measured Plant response rating, Johnsongrass (johnsongrass) of `CCOc1cc(C(=O)NC(C)C)nn1Cc1ccnc(C(F)(F)F)c1`
Output: 100

Task: State the measured Plant response rating, Johnsongrass (johnsongrass) of `CCONC(=O)c1cc(OCC)n(Cc2ccnc(C(F)(F)F)c2)n1`
Output: 75

Task: State the measured Plant response rating, Johnsongrass (johnsongrass) of `CCOc1cc(C(=O)NC2CC2)nn1Cc1ccnc(C(F)(F)F)c1`
Output: 100

Next item in the queue.
Task: State the measured Plant response rating, Johnsongrass (johnsongrass) of `CCc1cc(C(=O)NC(C)C)nn1Cc1ccnc(C(F)(F)F)c1`
Output: 85

---

Blackgrass plant response rating reference
# Test system: blackgrass
# EXPERIMENT_NOTES: Test C preemergence
# Assay type: in vivo, Alopecurus myosuroides
# CONDITION: preemergence, 250 g ai/ha; scale 0 to 100, 0 is no effect, 100 is complete control
# Description: […]
Provide a numeric answer; units are not to be included.

Task: Fill in reported Blackgrass plant response rating for this entry: `CCONC(=O)c1cc(OCC)n(Cc2ccnc(C(F)(F)F)c2)n1`
Output: 90

---

Wheat plant response rating reference
# Test system: wheat
# EXPERIMENT_NOTES: Test A postemergence
# Type: in vivo, Triticum aestivum
# CONDITION: Postemergence, 500 g ai/ha; visual rating after approx. 10 days, 0 to 100 scale (0 no effect, 100 complete control)
Provide a numeric answer; units are not to be included.

Some solved entries appear below for comparison.
Task: Fill in reported Wheat plant response rating for this entry: `CCc1cc(C(=O)NCC(F)(F)F)nn1Cc1ccnc(OCC(F)(F)F)c1`
Output: 40

Task: Fill in reported Wheat plant response rating for this entry: `CCc1cc(C(=O)NC(C)C)nn1Cc1ccnc(C(F)(F)F)c1`
Output: 90

Task: Fill in reported Wheat plant response rating for this entry: `CCCNC(=O)c1cc(C)n(Oc2ccnc(C(F)(F)F)c2)n1`
Output: 10

More entries:
Task: Fill in reported Wheat plant response rating for this entry: `CCc1cc(C(=O)NCC(F)(F)F)nn1Oc1cccc(C(F)(F)F)n1`
Output: 0

Task: Fill in reported Wheat plant response rating for this entry: `CCCCNC(=O)c1cc(CC)n(Oc2ccnc(C(F)(F)F)c2)n1`
Output: 10

Task: Fill in reported Wheat plant response rating for this entry: `Cc1cc(C(=O)NC2CC2)nn1Cc1ccc(F)c(C(F)(F)F)c1`
Output: 0

Task: Fill in reported Wheat plant response rating for this entry: `Cc1cc(C(=O)NC2CC2)nn1Cc1cccc(OC(F)(F)F)c1`
Output: 10

Task: Fill in reported Wheat plant response rating for this entry: `CCc1cc(C(=O)NC2CC2)nn1Cc1cc(C(F)(F)F)nn1CC`
Output: 40

Task: Fill in reported Wheat plant response rating for this entry: `CCc1cc(C(=O)NC2CC2)nn1Oc1ccnc(C(F)(F)F)c1`
Output: 40

---

Barnyardgrass plant response rating reference
# Tested on: barnyardgrass
# EXPERIMENT_NOTES: Test A postemergence
# Assay type: in vivo, Echinochloa crus-galli
# CONDITION: Postemergence, 500 g ai/ha; 0 to 100 scale (0 no effect, 100 complete control)
# Excerpt: […]
Provide a numeric answer; units are not to be included.

Some solved entries appear below for comparison.
Task: Fill in reported Barnyardgrass plant response rating for this entry: `CCCc1cc(C(=O)NCC(F)(F)F)nn1Cc1cc(C(F)(F)F)nn1C`
Output: 100

Task: Fill in reported Barnyardgrass plant response rating for this entry: `CCNC(=O)c1cc(CC)n(Cc2ccnc(C(F)(F)F)c2)n1`
Output: 90

Task: Fill in reported Barnyardgrass plant response rating for this entry: `CCCCc1cc(C(=O)NCC(F)(F)F)nn1Cc1ccnc(C(F)(F)F)c1`
Output: 40

Task: Fill in reported Barnyardgrass plant response rating for this entry: `CCONC(=O)c1cc(OCC)n(Cc2ccnc(C(F)(F)F)c2)n1`
Output: 90

Task: Fill in reported Barnyardgrass plant response rating for this entry: `CCc1cc(C(=O)NC2CC2)nn1Cc1ccnc(OCC(F)(F)F)c1`
Output: 100

Next item in the queue.
Task: Fill in reported Barnyardgrass plant response rating for this entry: `CCCNC(=O)c1cc(I)n(Cc2cccc(C(F)(F)F)c2)n1`
Output: 20
